Data provenance is patent US20260151494A1.

Target: apical domain of CD71 (Screen 3: 'cynomolgus apical domain of human CD71') (cynomolgus (as paragraph 454 words it; ambiguous))
Assay: primary ELISA, RLU ratio to HSA
Task for the reader: assign each of the following binders its reported Apical domain:HSA.
Reply with the value as a number alone.

q: Need Apical domain:HSA of CD71-binding FN3 domain SEQ ID NO: 268 (designed binder) MSLPAPKNLVVSRVTEDSARLSWTAPDAAFDSFEIGYFENLYLGEAIVLTVPGSERSYDPTGLKPGTEYWVQIGGVKGGNWSAPLSAIFTT , thanks.
a: 188

q: Ok, now CD71-binding FN3 domain SEQ ID NO: 241 (designed binder) MSLPAPKNLVVSRVTEDSARLSWTAPDAAFDSFMIAYDEFIVWGEAVVLTVPGSERSYDLTGLKPGTEYLVEILGVKGGTISGPLSAIFTT
a: 324

q: Ok, now CD71-binding FN3 domain SEQ ID NO: 308 (designed binder) MSLPAPKNLVVSRVTEDSARMSWTTPDAAFDSFEIGYFENLYLGEAIVLTVPGSERSYDLTGLKPGTEYWVQIGGVKGGNWSAPLSAIFTT
a: 188

q: Ok, now CD71-binding FN3 domain SEQ ID NO: 267 (designed binder) MSLPAPKNLVVSRVTEDSARLSWTAPDAAFDSFEISYWEHTFNGEAIILFVPGSERSYDLTGLKPGTEYYVTIGGVKGGAWSPPLWAEFTT
a: 178
